Where these numbers come from: patent US12723078

# system_tested: T1, recombinant LILRB1 (human, UniProt Q8NHL6 24-461)
# T1 construct: LILRB1-Fc proteins were also made; also called LILRB1 recombinant proteins
# test_summary: BLI (Octet RED96), antibody on biosensor, recombinant LILRB1 in solution;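 also: Background-subtracted sensorgrams fitted with a one-to-one binding model, KD taken as koff over kon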
reported_property: kon (M⁻¹ s⁻¹)
Please respond with the number in M⁻¹ s⁻¹ and leave the unit unwritten.

binder	u	assay_value
B1-#176 (antibody, V domains shown, recombinant rabbit IgG) VH: QSLEESEGGLVKPGGTLTLTCTASGFSFSSSYCMCWVRQAPGKGLELIACIYTDSSGATYYASWAKGRFTISKSSSTTITLQMTSLTAADTATYFCARGWDYEDPGYTDTTYFSLWGPGTLVTVSS VL: ELDLTQTPSSVEAAVGGTVTIKCQASQTIYTNLAWYQQKPGQPPNLLIYAASTLASGVSSRFKGSGSGTEFTLTISDLECADAATYYCQSYYGSSTTGNGFGGGTEVEIK	M⁻¹ s⁻¹	90300
B1-#93 (antibody, V domains shown, recombinant rabbit IgG) VH: EQSVEESGGDLVKPGTSLTLTCTASGFSFSGNTICWVRQAPGKRPEWIACIYPSSTSITTYATWAKGRFTVSKTSSTTVTLQMTSLTAADTATYFCARRYAAFLTYGSGAFDPWGPGTLVTISS VL: ELDLTQTPASVSAAVGGTVTINCQASESIGSALAWYQQKPGQPPKLLIYSASALASGVPSRFKGSGSGTEYTLTISDLECADAATYYCQSYYGSGTTALDTFGGGTEVEIK	M⁻¹ s⁻¹	39600

For record B1-#198 (antibody, V domains shown, recombinant rabbit IgG) VH: QSLEESGGGLVKPEGSLTLTCTASGFDLSNNYYICWVRQAPGKGLELIACVDSDLTDSADYASWAKGRFTISKTSSTTVTLQMTSLTAADTATYFCAGSGSGYYYYYGMDLWGPGTLVTISS VL: ELDMTQTPASVSEPVGGTVTIKCQASQSIGSYLAWYQQKPGQPPKLLAFYASTLKSGVPPRFKGSGSGTEFTLTISDLECADAATYYCQSNRLSSSDVNAFGGGTEVEIK the listed kon is 218000
